Target or system: human AspH (His6-AspH315–758) (Homo sapiens, UniProt Q12797)
Construct: N-Terminally His6-tagged human AspH315–758 (His6-AspH315–758) was produced in Escherichia coli BL21 (DE3) cells; made in house; host or cells: Escherichia coli BL21 (DE3), pET-28a(+) vector
Procedure details: SPE-MS AspH inhibition assay (hFX-CP101-119 substrate hydroxylation)
Format: biochemical
Study conditions: AspH-inhibitor screening, 384-well Plate 1, substrate conversion
Where a name gives a salt, the structure may show the parent alone.
Given measured Plate 1 (% conversion), output Met if it is greater than or equal to 50% and Not met if not.

>>> assigned_label("CC[C@]1(O)C[C@@H]2CN(CCc3c([nH]c4ccccc34)[C@@](C(=O)OC)(c3cc4c(cc3OC)N(C)[C@H]3[C@@](O)(C(=O)OC)[C@H](OC(C)=O)[C@]5(CC)C=CCN6CC[C@]43[C@@H]65)C2)C1 [Vinblastine sulfate]")
"Met"
>>> assigned_label("CO[C@H]1C[C@@H]2CC[C@@H](C)[C@@](O)(O2)C(=O)C(=O)N2CCCC[C@H]2C(=O)O[C@H]([C@H](C)C[C@@H]2CC[C@@H](OP(C)(C)=O)[C@H](OC)C2)CC(=O)[C@H](C)/C=C(\\C)[C@@H](O)[C@@H](OC)C(=O)[C@H](C)C[C@H](C)/C=C/C=C/C=C/1C")
"Not met"
>>> assigned_label("COc1cccc2c1C(=O)c1c(O)c3c(c(O)c1C2=O)C[C@@](O)(C(=O)CO)C[C@@H]3O[C@H]1C[C@H](N)[C@@H](O)[C@H](C)O1 [Epirubicin hydrochloride]")
"Met"
>>> assigned_label("CC(C)C[C@@H](C(=O)N[C@H](C(=O)OC1CCCC1)c1ccccc1)[C@H](O)C(=O)NO")
"Met"
>>> assigned_label("Cl.Cn1c(CCCC(=O)O)nc2cc(N(CCCl)CCCl)ccc21 [Bendamustine hydrochloride]")
"Not met"
>>> assigned_label("O=C(O)C(=O)O.[NH-][C@@H]1CCCC[C@H]1[NH-].[Pt+2]")
"Not met"
>>> assigned_label("CC(C)C[C@H](NC(=O)[C@H](Cc1ccccc1)NC(=O)c1cnccn1)B(O)O")
"Not met"
>>> assigned_label("N#CC[C@H](C1CCCC1)n1cc(-c2ncnc3[nH]ccc23)cn1 [INCB018424 (free base, Ruxolitinib)]")
"Not met"
>>> assigned_label("COc1cc2nccc(Oc3ccc(NC(=O)Nc4cc(C)on4)c(Cl)c3)c2cc1OC")
"Not met"
>>> assigned_label("COc1ccc(C2=N[C@@H](c3ccc(Cl)cc3)[C@@H](c3ccc(Cl)cc3)N2C(=O)N2CCNC(=O)C2)c(OC(C)C)c1")
"Met"
>>> assigned_label("CC(=O)N(O)CCCCCNC(=O)CCC(=O)N(O)CCCCCNC(=O)CCC(=O)N(O)CCCCCN [Deferoxamine mesylate]")
"Not met"
>>> assigned_label("Nc1nc2[nH]cc(CCc3ccc(C(=O)N[C@@H](CCC(=O)O)C(=O)O)cc3)c2c(=O)[nH]1")
"Not met"
>>> assigned_label("Cn1cnc2c(F)c(Nc3ccc(Br)cc3Cl)c(C(=O)NOCCO)cc21 [AZD6244 (Selumetinib)]")
"Not met"
>>> assigned_label("Cc1ccc(C(=O)Nc2ccc(CN3CCN(C)CC3)c(C(F)(F)F)c2)cc1C#Cc1cnc2cccnn12")
"Met"
>>> assigned_label("CC[C@H](Nc1ncnc2[nH]cnc12)c1nc2cccc(F)c2c(=O)n1-c1ccccc1 [Idelalisib]")
"Not met"
>>> assigned_label("Cc1ccc(NC(=O)c2ccc(CN3CCN(C)CC3)cc2)cc1Nc1nc(-c2cccnc2)cs1")
"Met"
>>> assigned_label("NCCCNCCSP(=O)(O)O")
"Not met"
>>> assigned_label("Nc1nc(Cl)nc2c1ncn2[C@H]1C[C@H](O)[C@@H](CO)O1")
"Not met"
>>> assigned_label("C[C@@H]1C=C2C(=O)O[C@@H]3CC[C@H](C1)[C@]23O")
"Not met"
>>> assigned_label("NCC(=O)CCC(=O)O [Aminolevulinic acid hydrochloride]")
"Not met"
>>> assigned_label("CC[C@@]1(O)C(=O)OCc2c1cc1n(c2=O)Cc2cc3ccccc3nc2-1")
"Not met"
>>> assigned_label("Cc1cnc(NC(=O)Nc2cc(Br)c(C)cc2OC[C@@H]2CNCCO2)cn1")
"Met"
>>> assigned_label("CN(Cc1cnc2nc(N)nc(N)c2n1)c1ccc(C(=O)N[C@@H](CCC(=O)O)C(=O)O)cc1 [Methotrexate]")
"Not met"
>>> assigned_label("CCn1c(C(=O)N(C2CC2)C2CC2)cc2c3c(ncn3C)c(Nc3cc(C)n(C)n3)nc21")
"Met"

====

Overview of recorded Plate 1 (% conversion) for various compounds
Target or system: human AspH (His6-AspH315–758) (Homo sapiens, UniProt Q12797)
Construct: N-Terminally His6-tagged human AspH315–758 (His6-AspH315–758) was produced in Escherichia coli BL21 (DE3) cells; made in house; host or cells: Escherichia coli BL21 (DE3), pET-28a(+) vector
Procedure details: SPE-MS AspH inhibition assay (hFX-CP101-119 substrate hydroxylation)
Format: biochemical
Study conditions: AspH-inhibitor screening, 384-well Plate 1, substrate conversion
Structures can show the parent of a compound that is named as a salt.
Reported metric: Plate 1 (% conversion) (%)

>>> observed_value("Cl.O=C(/C=C/c1cccnc1)NCCCCC1CCN(C(=O)c2ccccc2)CC1 [FK-866 HCl_Daporinad]")
48.76
>>> observed_value("O=S(=O)(c1cccc2cnccc12)N1CCCNCC1 [HA-1077 (Fasudil)]")
49.28
>>> observed_value("Cn1c(=O)c(F)c(Nc2ccc(I)cc2F)c2c(=O)n(C[C@@H](O)CO)cnc21 [TAK-733]")
60.13
>>> observed_value("O=C(O)c1ccc(-c2c[nH]c3ncc(-c4ccccc4)cc23)cc1C1CCCC1 [GSK 650394]")
23.08
>>> observed_value("CCN(CC)CCOc1ccc(C(=C(Cl)c2ccccc2)c2ccccc2)cc1 [Clomifene citrate]")
22.05

====

Target or system: human AspH (His6-AspH315–758) (Homo sapiens)
Construct: N-Terminally His6-tagged human AspH315–758 (His6-AspH315–758) was produced in Escherichia coli BL21 (DE3) cells; made in house; host or cells: Escherichia coli BL21 (DE3), pET-28a(+) vector
Sequence (Q12797 315-758): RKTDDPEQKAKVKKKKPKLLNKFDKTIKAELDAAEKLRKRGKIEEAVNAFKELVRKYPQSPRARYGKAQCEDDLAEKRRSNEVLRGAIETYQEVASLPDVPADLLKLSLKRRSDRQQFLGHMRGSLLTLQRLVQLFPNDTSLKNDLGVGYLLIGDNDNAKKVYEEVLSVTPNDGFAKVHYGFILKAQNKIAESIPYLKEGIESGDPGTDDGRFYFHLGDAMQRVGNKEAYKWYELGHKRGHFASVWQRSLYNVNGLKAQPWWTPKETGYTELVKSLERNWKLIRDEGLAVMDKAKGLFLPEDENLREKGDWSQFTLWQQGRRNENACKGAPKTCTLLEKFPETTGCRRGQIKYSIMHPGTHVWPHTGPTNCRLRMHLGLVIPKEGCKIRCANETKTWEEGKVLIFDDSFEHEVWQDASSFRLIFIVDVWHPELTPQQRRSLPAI
Procedure details: SPE-MS AspH inhibition assay (hFX-CP101-119 substrate hydroxylation)
Format: biochemical
Study conditions: AspH-inhibitor screening, 384-well Plate 1, substrate conversion
Where a name gives a salt, the structure may show the parent alone.
Overview of recorded Plate 1 (% conversion) for various compounds
Reported metric: Plate 1 (% conversion) (%)

>>> observed_value("CO[C@H]1C[C@@H]2CC[C@@H](C)[C@@](O)(O2)C(=O)C(=O)N2CCCC[C@H]2C(=O)O[C@H]([C@H](C)C[C@@H]2CC[C@@H](OCCO)[C@H](OC)C2)CC(=O)[C@H](C)/C=C(\\C)[C@@H](O)[C@@H](OC)C(=O)[C@H](C)C[C@H](C)/C=C/C=C/C=C/1C")
58.15
>>> observed_value("COc1cccc2cc(-c3nc([C@H]4CC[C@H](C(=O)O)CC4)n4ncnc(N)c34)[nH]c12")
52.02
>>> observed_value("CN(C)CCN1C(=O)c2cccc3cc(N)cc(c23)C1=O [Amonafide]")
47.72
>>> observed_value("C#Cc1cccc(Nc2ncnc3cc(OCCOC)c(OCCOC)cc23)c1 [Erlotinib hydrochloride]")
95.90
>>> observed_value("Cn1cnc2c(F)c(Nc3ccc(Br)cc3F)c(C(=O)NOCCO)cc21")
50.34
>>> observed_value("CC(C)n1nc(-c2ccc3oc(N)nc3c2)c2c(N)ncnc21")
47.46
>>> observed_value("C[C@@H](C(=O)O)c1ccc(-c2ccccc2)c(F)c1 [(R)-Flurbiprofen (Tarenflurbil)]")
44.86

Where do these numbers come from? They come from paper PMC7588595.
